Measured values drawn from ChEMBL document CHEMBL4619721 for this set.

System Under Test: UniProtKB P35218
Sequence (P35218 whole entry): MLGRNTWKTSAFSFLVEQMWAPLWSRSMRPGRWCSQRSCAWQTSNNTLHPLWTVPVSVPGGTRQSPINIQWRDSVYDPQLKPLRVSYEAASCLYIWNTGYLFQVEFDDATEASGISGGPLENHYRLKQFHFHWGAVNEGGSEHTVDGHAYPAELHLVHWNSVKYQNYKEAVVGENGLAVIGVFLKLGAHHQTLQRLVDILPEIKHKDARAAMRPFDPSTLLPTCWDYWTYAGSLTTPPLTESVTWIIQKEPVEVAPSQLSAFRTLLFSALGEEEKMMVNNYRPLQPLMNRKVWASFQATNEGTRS
Protocol Text: Inhibition of human carbonic anhydrase 5A using p-nitrophenyl acetate as substrate by UV-VIS spectrophotometric analysis
Value Type: IC50 (µM)
Write it as a number; the unit µM goes unstated.

Compound	System Under Test	IC50, µM
COc1cc(/C=C/C(=O)O)ccc1OCc1cn(-c2cccc([N+](=O)[O-])c2)nn1	UniProtKB P35218	1.1

Let us examine a further case.
Item: COc1cc(/C=C/C(=O)O)ccc1O [FERULATE] | IC50: 8.86

----------
For reference, IC50 measured on Carbonic anhydrase 2 (Homo sapiens, UniProt P00918):
Write it as a number; the unit µM goes unstated.

Molecule	Display Unit	IC50
COc1cc(/C=C/C(=O)O)ccc1O [FERULATE]	µM	6.44

Let us examine a further case.
Item: COc1cc(/C=C/C(=O)O)ccc1OCc1cn(-c2cccc([N+](=O)[O-])c2)nn1 | IC50: 1.99
